- system tested: human glucagon receptor (human, UniProt P47871 26-477)
- Sequence (P47871 26-477): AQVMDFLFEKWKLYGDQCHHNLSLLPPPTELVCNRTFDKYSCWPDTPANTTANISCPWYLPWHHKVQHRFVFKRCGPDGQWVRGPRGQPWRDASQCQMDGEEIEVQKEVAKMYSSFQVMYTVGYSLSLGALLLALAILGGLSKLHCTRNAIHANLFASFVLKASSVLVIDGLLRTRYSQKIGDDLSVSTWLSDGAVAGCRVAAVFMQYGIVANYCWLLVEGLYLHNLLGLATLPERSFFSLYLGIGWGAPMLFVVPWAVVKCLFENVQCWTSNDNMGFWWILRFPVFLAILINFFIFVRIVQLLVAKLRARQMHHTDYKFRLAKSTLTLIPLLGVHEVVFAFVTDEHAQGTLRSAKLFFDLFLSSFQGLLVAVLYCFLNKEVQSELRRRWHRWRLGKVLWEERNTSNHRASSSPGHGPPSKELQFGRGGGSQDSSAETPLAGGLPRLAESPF
- assay details: cell-based or functional assay
*1 amine or outer side, *2 acyl side, *3 side chain or, on linkers, in order; H or OH if unused. Bridges are numbered along the chain shown (N, C = ends). Where no end group is shown, it is not given here. [ ]: non-standard residue; d: D form. Oxa12‑cholesterol = C10 = Cys(oxa12-cholesterol); γGlu = O=C(O)[C@H](CCC(=O)[*:2])N[*:1]; oxa12‑cholesterol = not defined here; Aib = CC(C)(N)C(=O)O
Label 1 when hGCGR EC50 >= 0.1 nM; otherwise -1.

Quick check: does HXQGTFTSDYSKYLDSRRAQDFVQWLMNTKEEC (Acb (1-amino-1-cyclobutane carboxylic acid) at position 2; gamma-glutamic acid at positions 31 and 32; C10 = Cys(oxa12-cholesterol) at position 33; C-terminal COOH) [OXM401] have hGCGR EC50 greater than or equal to 0.1 nM? -1

Does H[Aib]QGTFTSDYSKYLDERRAKDFVQWLMNTK[γGlu][γGlu]C(Oxa12‑cholesterol)-OH (lactam 16-20) [OXM395] have a reported hGCGR EC50 of at least 0.1 nM? 1

Check this binder for hGCGR EC50 at or above 0.1 nM: HSQGTFTSDYSKYLDSRRAQDFVQWLMNTKEEC (D-Ser at position 2; gamma-glutamic acid at positions 31 and 32; C10 = Cys(oxa12-cholesterol) at position 33; C-terminal COOH) [OXM399] -1

Say whether H[dS]QGTFTSDYSKYLDERRAKDFVQWLMNTK[γGlu][γGlu]C(oxa12‑cholesterol)-OH (lactam 16-20; reading uncertain) [OXM392] shows hGCGR EC50 of 0.1 nM or more. -1

Test whether the binder HXQGTFTSDYSKYLDSRRAQDFVQWLMNTKEEC (Aib at position 2; gamma-glutamic acid at positions 31 and 32; C10 = Cys(oxa12-cholesterol) at position 33; C-terminal COOH) [OXM400] records hGCGR EC50 of 0.1 nM or higher. -1
